- Test system: A549
- METHOD_SUMMARY: NCI tumour cell line growth inhibition, 48 h
Calls of active or inactive are those of the source. No stated cut-off is given here; in the data, active = GI50 up to about 1.1 µM and inactive = higher.
Outcome codes: T (active), F (inactive)

[
  {
    "COMPOUND": "S=C1CSc2c(cnc3ccccc23)N1",
    "ASSIGNED_CLASS": "F"
  },
  {
    "COMPOUND": "O=C(NC1CCCCC1)N1CCNC1=S",
    "ASSIGNED_CLASS": "F"
  },
  {
    "COMPOUND": "CCN(CC)CCOc1ccc(/C=C(\\C#N)c2ccc(OCCN(CC)CC)cc2)cc1",
    "ASSIGNED_CLASS": "F"
  },
  {
    "COMPOUND": "COC(=O)C1[C@H](C(=O)OC)C1(Br)CBr (stereo partly drawn)",
    "ASSIGNED_CLASS": "F"
  },
  {
    "COMPOUND": "Cc1cc(S(=O)(=O)Nc2nc(N)n(-c3cnc4ccccc4n3)n2)c(S)cc1Cl",
    "ASSIGNED_CLASS": "F"
  },
  {
    "COMPOUND": "CN1CCCN2CCN(C)CCN(CC1)CC2",
    "ASSIGNED_CLASS": "F"
  },
  {
    "COMPOUND": "NNC(=O)c1ccccc1NC(=O)/C(=C/c1ccccc1)NC(=O)c1ccccc1",
    "ASSIGNED_CLASS": "F"
  },
  {
    "COMPOUND": "O=S(=O)(O)c1cc(/N=N/c2cccc3ccccc23)c(O)c2ncccc12",
    "ASSIGNED_CLASS": "F"
  },
  {
    "COMPOUND": "CC(=O)OC(C)(C)/N=N/c1ccc(Br)cc1",
    "ASSIGNED_CLASS": "F"
  },
  {
    "COMPOUND": "CSC1=NC=CCN1C",
    "ASSIGNED_CLASS": "F"
  },
  {
    "COMPOUND": "COc1cc2ccc(=O)oc2cc1O",
    "ASSIGNED_CLASS": "F"
  },
  {
    "COMPOUND": "Cn1c(=O)c2c(nc3sc4nc5ccccc5nc4n32)n(C)c1=O",
    "ASSIGNED_CLASS": "F"
  },
  {
    "COMPOUND": "CS(=O)(=O)OCCCCOS(=O)(=O)CF",
    "ASSIGNED_CLASS": "F"
  },
  {
    "COMPOUND": "C=C[C@@]1(C)CCC2(O)C(CCC3C2(C)CCC[C@@]3(C)COC(=O)CC(=O)OC)C1 (stereo partly drawn)",
    "ASSIGNED_CLASS": "F"
  },
  {
    "COMPOUND": "COc1ccc2nc3cc(Cl)ccc3c(NCCCN(C)CCCNc3ccc4ncn5c6ccccc6c(=O)c3c45)c2c1",
    "ASSIGNED_CLASS": "T"
  },
  {
    "COMPOUND": "O=C1c2c(Br)sc(Br)c2C(NC(=O)C(F)(F)F)C1O (stereo not drawn)",
    "ASSIGNED_CLASS": "F"
  },
  {
    "COMPOUND": "COc1ccc(-c2cc(=O)c3ccc(O)cc3o2)cc1OC",
    "ASSIGNED_CLASS": "F"
  },
  {
    "COMPOUND": "CC(=O)OCC1OC(n2c(C)c(C)cc(C#N)c2=S)C(OC(C)=O)C(OC(C)=O)C1OC(C)=O (stereo not drawn)",
    "ASSIGNED_CLASS": "F"
  },
  {
    "COMPOUND": "Cc1cn(C2CC(N)C(C(=O)O)O2)c(=O)[nH]c1=O (stereo not drawn)",
    "ASSIGNED_CLASS": "F"
  },
  {
    "COMPOUND": "Nc1nn2c(nc(N)c3c(N)n[nH]c32)c1/N=N\\c1ccc(Br)cc1",
    "ASSIGNED_CLASS": "F"
  },
  {
    "COMPOUND": "Cc1ccc(S(=O)(=O)OCC23CCC(C4CC42)C2CC23)cc1 (stereo not drawn)",
    "ASSIGNED_CLASS": "F"
  },
  {
    "COMPOUND": "COc1ccc(OC)c(C(=O)/C=C/c2cc(O)c(O)cc2F)c1",
    "ASSIGNED_CLASS": "F"
  },
  {
    "COMPOUND": "COc1nc(-c2cn(S(=O)(=O)c3ccc(C)cc3)c3ccc(Br)cc23)cc(C(F)(F)F)c1C#N",
    "ASSIGNED_CLASS": "F"
  }
]
